Test system: human lung cancer strain NCI-H441
Type: cell-based
Reported IC50 values for the following molecules.
Report only the number, with the unit nM understood.

Lookup: IC50 / human lung cancer strain NCI-H441 / CC[C@H](C)[C@@H]1NC(=O)[C@H](CC(C)C)N(C)C(=O)C[C@@H](C(=O)N2CCOCC2)N(C)C(=O)[C@H](C2CCCC2)N(C)C(=O)C2(CCC2)NC(=O)[C@@H]2[C@H]3C[C@H]3CN2C(=O)[C@H](CCc2cc(F)c(C(F)(F)F)c(F)c2)NC(=O)CN(C)C(=O)[C@H](Cc2ccc(C(F)(F)F)cc2)N2CCCC[C@@H](C2=O)N(C)C(=O)CN(C)C1=O 12.8

Repeat for the following molecule: CCO[C@@H]1C[C@H]2C(=O)NC3(CCC3)C(=O)N(C)[C@@H](C3CCCC3)C(=O)N(CCc3ccccc3)[C@H](C(=O)N3CCOCC3)CC(=O)N(C)[C@@H](CC(C)C)C(=O)N[C@@H]([C@@H](C)CC)C(=O)N(C)CC(=O)N(C)[C@H]3CCCCCN(C3=O)[C@@H](Cc3ccc(C(F)(F)F)cc3)C(=O)N(C)CC(=O)N[C@@H](CCc3cc(F)c(C(F)(F)F)c(F)c3)C(=O)N2C1 2650

###

Tested on: GDP-bound KRAS wild-type protein (Homo sapiens)
Sequence (P01116 1-188 isoform P01116-2): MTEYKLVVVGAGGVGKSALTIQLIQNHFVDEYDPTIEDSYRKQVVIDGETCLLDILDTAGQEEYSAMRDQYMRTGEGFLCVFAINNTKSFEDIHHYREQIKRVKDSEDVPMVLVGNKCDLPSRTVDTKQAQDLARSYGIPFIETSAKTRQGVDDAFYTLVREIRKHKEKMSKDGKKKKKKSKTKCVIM
Method: Binding to KRAS by surface plasmon resonance (SPR), dissociation constant KD
Condition summary: 1:1 binding model
Readout name: pKd
Give only the number. pKd is defined as minus log10 of concentration in molar units.

smiles_data=CCOC[C@H]1C(=O)N[C@@H]([C@@H](C)CC)C(=O)N(C)CC(=O)N(C)[C@H]2C/C=C\CCN(C2=O)[C@@H](CC2CCC(F)(F)CC2)C(=O)N(C)CC(=O)N[C@@H](CCc2cc(F)c(C(F)(F)F)c(F)c2)C(=O)N2C[C@@H](C)C[C@H]2C(=O)NC2(CC(C)(C)C2)C(=O)N(C)[C@@H](C(CC)CC)C(=O)N(C)[C@H](C(=O)N(C)C)CC(=O)N1C observed_result=8.80

Switching to the query record.
Bench note: what pKd did CCO[C@@H]1C[C@H]2C(=O)NC3(CC(C)(C)C3)C(=O)N(C)[C@@H](C3CCCC3)C(=O)N(C)[C@H](C(=O)N(C)CC)CC(=O)N(C)[C@H]3CC/C=C/c4ccc(cc4)C[C@@H](C(=O)N(C)CC(=O)N[C@@H](CCc4ccc(Cl)c(Cl)c4)C(=O)N2C1)N1CC/C=C\C[C@@H](C1=O)N(C)C(=O)CN(C1CC1)C(=O)[C@H]([C@@H](C)CC)NC3=O show? 8.72

###

Tested on: GDP-bound KRAS wild-type protein (Homo sapiens)
Method: Binding to KRAS by surface plasmon resonance (SPR), dissociation constant KD
Condition summary: Single Cycle Kinetics
Readout name: pKd
Note on units: pKd is unitless, being -log10 of a concentration expressed in mol/L.

Reported pKd, compound CCC[C@H]1C(=O)N[C@@H]([C@@H](C)CC)C(=O)N(C)CC(=O)N(C)[C@H]2C/C=C\CCN(C2=O)[C@@H](Cc2ccc(C(F)(F)F)cc2)C(=O)N(C)CC(=O)N[C@@H](CCc2cc(F)c(C(F)(F)F)c(F)c2)C(=O)N2CC3(CC3)C[C@H]2C(=O)NC2(CCC2)C(=O)N(C)[C@@H](C2CCCC2)C(=O)N(C)[C@H](C(=O)N(C)C)CC(=O)N1C : ____ 10.23

Input CC[C@H](C)[C@@H]1NC(=O)[C@H](CC(C)C)N(C)C(=O)C[C@@H](C(=O)N2CCOCC2)N(C)C(=O)[C@H](C2CCCC2)N(C)C(=O)C2(CCC2)NC(=O)[C@@H]2[C@@H](OCCC(F)(F)F)CCN2C(=O)[C@H](CCc2cc(F)c(C(F)(F)F)c(F)c2)NC(=O)CN(C)C(=O)[C@H](Cc2ccc(C(F)(F)F)cc2)N2CCCCC[C@@H](C2=O)N(C)C(=O)CN(C)C1=O 8.96
